These entries and their values trace back to ChEMBL document CHEMBL5291721.

This section lists AC50 readings for Vasopressin V1a receptor (Homo sapiens).

These solved cases illustrate the format of a correct answer.
| molecule | tested_system | AC50 |
| --- | --- | --- |
| O=c1c(O)c(-c2ccc(O)c(O)c2)oc2cc(O)cc(O)c12 | Vasopressin V1a receptor (Homo sapiens) | > 30 µM |
| COc1cc(C)c(/C=C/C(C)=C/C=C/C(C)=C/C(=O)O)c(C)c1C | Vasopressin V1a receptor (Homo sapiens) | > 10 µM |
| O=C1OC(OC(=O)c2cccnc2Nc2cccc(C(F)(F)F)c2)c2ccccc21 (stereo not drawn) [TALNIFLUMATE] | Vasopressin V1a receptor (Homo sapiens) | > 30 µM |
| O=C1Cc2cc(CCN3CCN(c4nsc5ccccc45)CC3)c(Cl)cc2N1 | Vasopressin V1a receptor (Homo sapiens) | > 10 µM |
| C[C@@H]1C[C@H]2[C@@H]3C[C@H](F)C4=CC(=O)C=C[C@]4(C)[C@@]3(F)[C@@H](O)C[C@]2(C)[C@@]1(OC(=O)c1ccco1)C(=O)SCF [FLUTICASONE FUROATE] | Vasopressin V1a receptor (Homo sapiens) | > 10 µM |
| COc1cc(C(=O)OCc2cccc(COC(=O)c3cc(OC)c(OC)c(OC)c3)n2)cc(OC)c1OC | Vasopressin V1a receptor (Homo sapiens) | > 30 µM |
| O=C(O)CCNC(=O)c1ccc(/N=N/c2ccc(O)c(C(=O)O)c2)cc1 [BALSALAZIDE] | Vasopressin V1a receptor (Homo sapiens) | 33.7 µM |

// fetch Vasopressin V1a receptor (Homo sapiens) AC50 for CCc1cc2c(s1)-n1c(C)nnc1CN=C2c1ccccc1Cl
> 30 µM

###

For each of the molecules below, state its AC50.
- tested_system: Alpha-2A adrenergic receptor (Homo sapiens)
- Sequence (P08913 whole entry): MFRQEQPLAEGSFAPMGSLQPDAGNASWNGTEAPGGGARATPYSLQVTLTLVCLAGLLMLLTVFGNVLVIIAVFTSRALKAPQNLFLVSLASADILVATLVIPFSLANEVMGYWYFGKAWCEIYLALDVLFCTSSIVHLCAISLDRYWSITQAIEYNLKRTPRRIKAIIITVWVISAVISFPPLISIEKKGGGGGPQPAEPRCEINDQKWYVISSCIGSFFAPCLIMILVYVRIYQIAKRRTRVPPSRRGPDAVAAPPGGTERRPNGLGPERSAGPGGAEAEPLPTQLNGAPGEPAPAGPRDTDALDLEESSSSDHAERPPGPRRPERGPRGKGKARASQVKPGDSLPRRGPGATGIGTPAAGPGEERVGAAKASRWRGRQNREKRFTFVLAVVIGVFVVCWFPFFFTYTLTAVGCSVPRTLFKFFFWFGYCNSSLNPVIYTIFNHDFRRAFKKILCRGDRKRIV
- Format: functional, cell-based

The examples below pair each entry with its known result.
| molecule | AC50 |
| --- | --- |
| CN1Cc2c(N)cccc2C(c2ccccc2)C1 (centres undefined) | > 30 µM |
| CC(C)NC(=N)NC(=N)Nc1ccc(Cl)c(Cl)c1 | > 30 µM |
| C[C@@H]1C[C@H]2[C@@H]3C[C@H](F)C4=CC(=O)C=C[C@]4(C)[C@@]3(F)[C@@H](O)C[C@]2(C)[C@@]1(OC(=O)c1ccco1)C(=O)SCF [FLUTICASONE FUROATE] | > 10 µM |

From here, focus on the item given below.
Notebook: pull reported AC50 for Alpha-2A adrenergic receptor (Homo sapiens), entry NC[C@H]1CC[C@H](C(=O)Oc2ccc(CCC(=O)O)cc2)CC1 [CETRAXATE]
> 30 µM

###

- tested_system: Bile salt export pump (Homo sapiens, UniProt O95342); also: assay procedure not described here
- Sequence (O95342 whole entry): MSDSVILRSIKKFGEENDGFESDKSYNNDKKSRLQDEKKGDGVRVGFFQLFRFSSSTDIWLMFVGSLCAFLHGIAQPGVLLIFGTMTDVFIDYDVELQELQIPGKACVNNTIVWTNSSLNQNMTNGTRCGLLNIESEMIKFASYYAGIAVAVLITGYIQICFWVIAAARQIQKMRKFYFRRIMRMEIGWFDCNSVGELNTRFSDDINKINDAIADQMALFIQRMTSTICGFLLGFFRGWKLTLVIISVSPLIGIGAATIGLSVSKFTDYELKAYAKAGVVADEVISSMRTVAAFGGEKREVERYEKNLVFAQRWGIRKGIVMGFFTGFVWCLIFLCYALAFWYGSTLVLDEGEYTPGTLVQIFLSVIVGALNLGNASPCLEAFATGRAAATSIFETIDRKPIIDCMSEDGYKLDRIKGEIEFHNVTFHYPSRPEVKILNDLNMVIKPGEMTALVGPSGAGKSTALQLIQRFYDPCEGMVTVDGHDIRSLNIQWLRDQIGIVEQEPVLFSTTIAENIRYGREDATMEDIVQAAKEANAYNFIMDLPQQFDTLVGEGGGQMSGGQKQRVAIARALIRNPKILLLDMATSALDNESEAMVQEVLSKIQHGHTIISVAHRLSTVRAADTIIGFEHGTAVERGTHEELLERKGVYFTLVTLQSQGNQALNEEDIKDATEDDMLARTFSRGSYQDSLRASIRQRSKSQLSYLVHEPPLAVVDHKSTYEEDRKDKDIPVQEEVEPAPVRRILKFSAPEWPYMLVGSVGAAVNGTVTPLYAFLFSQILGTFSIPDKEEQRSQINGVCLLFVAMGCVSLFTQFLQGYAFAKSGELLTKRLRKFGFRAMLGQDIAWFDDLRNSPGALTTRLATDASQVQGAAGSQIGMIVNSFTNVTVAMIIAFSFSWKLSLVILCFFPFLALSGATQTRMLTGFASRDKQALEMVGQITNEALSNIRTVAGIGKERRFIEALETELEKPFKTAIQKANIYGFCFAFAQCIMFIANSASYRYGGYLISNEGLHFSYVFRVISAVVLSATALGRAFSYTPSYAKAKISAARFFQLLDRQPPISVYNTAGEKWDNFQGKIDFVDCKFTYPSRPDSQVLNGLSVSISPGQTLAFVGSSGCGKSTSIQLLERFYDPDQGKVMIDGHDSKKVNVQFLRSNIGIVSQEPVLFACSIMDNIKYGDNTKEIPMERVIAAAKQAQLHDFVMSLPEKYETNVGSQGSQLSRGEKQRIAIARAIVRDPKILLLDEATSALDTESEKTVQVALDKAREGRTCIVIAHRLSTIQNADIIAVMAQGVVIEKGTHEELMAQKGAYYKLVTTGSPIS
- Type: functional
observation_type: AC50

Worked cases, AC50 given:
| compound | AC50 |
| --- | --- |
| CC=CC1=C(C(=O)O)N2C(=O)[C@@H](NC(=O)[C@H](N)c3ccc(O)cc3)[C@H]2SC1 | > 300 µM |
| CCCc1nc2c(C)cc(-c3nc4ccccc4n3C)cc2n1Cc1ccc(-c2ccccc2C(=O)O)cc1 | 5 µM |
| Cc1cc(=O)oc2cc(O)ccc12 | > 300 µM |
| CC(=O)Nc1ccc(CC(=O)O)cc1 | > 300 µM |
| C[C@H]1CN(C[C@H](Cc2ccccc2)C(=O)NCC(=O)O)CC[C@@]1(C)c1cccc(O)c1 | > 300 µM |
| CC(C(=O)O)c1cccc(Oc2ccccc2)c1 (stereo not drawn) | > 300 µM |

Your task in this section: give AC50 for each listed record.
1. CC(C)(O/N=C(\C(=O)N[C@@H]1C(=O)N2C(C(=O)[O-])=C(C[n+]3ccccc3)CS[C@H]12)c1csc(N)n1)C(=O)O
2. O=C(O)Cc1ccccc1Nc1c(Cl)cccc1Cl
3. CN(C)c1ccc(O)c2c1C[C@H]1C[C@H]3[C@H](N(C)C)C(O)=C(C(N)=O)C(=O)[C@@]3(O)C(O)=C1C2=O
4. COc1cc(C(=O)NS(=O)(=O)c2ccccc2C)ccc1Cc1cn(C)c2ccc(NC(=O)OC3CCCC3)cc12

["> 300 µM", "> 300 µM", "83 µM", "2.28 µM"]

For every listed record, write down its AC50.
1. Cn1cc(C(=O)[C@@H]2CCc3nc[nH]c3C2)c2ccccc21
2. Cc1nc(Nc2ncc(C(=O)Nc3c(C)cccc3Cl)s2)cc(N2CCN(CCO)CC2)n1
3. C[N+](C)(C)CCOC(=O)CCC(=O)OCC[N+](C)(C)C
4. S=P(N1CC1)(N1CC1)N1CC1
5. CCCc1cc(=O)[nH]c(=S)[nH]1
6. Nc1c(CC(=O)O)cccc1C(=O)c1ccc(Br)cc1
7. O=C(O)c1ccccc1

["> 300 µM", "22 µM", "> 300 µM", "83 µM", "> 300 µM", "88 µM", "260 µM"]

What value of AC50 has been recorded for this entry: Cc1nnc(SCC2=C(C(=O)O)N3C(=O)[C@@H](NC(=O)Cn4cnnn4)[C@H]3SC2)s1
> 300 µM

###

- tested_system: Alpha-2A adrenergic receptor (Homo sapiens)
- Format: functional, cell-based
observation_type: AC50

Example cases with answers are listed next.
| compound | AC50 |
| --- | --- |
| C=C1c2cccc(O)c2C(=O)C2=C(O)[C@]3(O)C(=O)C(C(N)=O)=C(O)[C@@H](N(C)C)[C@@H]3[C@@H](O)[C@H]12 [METHACYCLINE] | > 10 µM |
| COc1cc(C(=O)NC2CCCNC2)cc(OC)c1OC (centres undefined) [TROXIPIDE] | > 30 µM |
| CC(C(=O)O)c1ccc2c(c1)CC(=O)c1ccccc1S2 (centres undefined) [ZALTOPROFEN] | > 30 µM |
| Cc1ccccc1-n1c(CF)nc2ccc(N)cc2c1=O [AFLOQUALONE] | > 10 µM |
| CCOC(=O)c1c(CSc2ccccc2)n(C)c2cc(Br)c(O)c(CN(C)C)c12 [UMIFENOVIR] | > 30 µM |

Can you give me AC50 for all of these, one by one?
1. COc1ccc(CN2CCN(C(c3ccc(F)cc3)c3ccc(F)cc3)CC2)c(OC)c1OC [LOMERIZINE]
2. CCC(=O)O[C@](Cc1ccccc1)(c1ccccc1)[C@H](C)CN(C)C [PROPOXYPHENE]
3. Oc1cc(O)c(Cl)cn1
4. O=C(O)CCNC(=O)c1ccc(/N=N/c2ccc(O)c(C(=O)O)c2)cc1 [BALSALAZIDE]

["> 30 µM", "> 10 µM", "> 30 µM", "> 30 µM"]

###

- tested_system: UniProtKB P08913
- Assay type: functional, cell-based
Please respond with reported AC50 for every item in the list.

A selection of reference data follows.
| compound | AC50 |
| --- | --- |
| Cc1ccnc2c1NC(=O)c1cccnc1N2C1CC1 | > 10 µM |
| C[N+](C)(C)CCOP(=O)([O-])OC[C@H](O)CO | > 30 µM |
| C[C@]12CCC(=O)C[C@@H]1CC[C@@H]1[C@@H]2CC[C@]2(C)[C@@H](O)CC[C@@H]12 | > 30 µM |
| C[N+]1(C)CCC(=C(c2ccccc2)c2ccccc2)CC1 | > 10 µM |

Provide each entry's AC50 from the list below.
1. Cc1ccccc1-n1c(CF)nc2ccc(N)cc2c1=O
2. C=CC[N+]1([C@H]2C[C@H]3[C@@H]4CC[C@H]5C[C@H](O)[C@@H](N6CCOCC6)C[C@]5(C)[C@H]4CC[C@]3(C)[C@H]2OC(C)=O)CCCC1
3. CNC(=C[N+](=O)[O-])NCCSCc1csc(CN(C)C)n1

1: > 10 µM; 2: > 30 µM; 3: > 10 µM

Respectfully, I request AC50 for each entry included below.
1. CC(C(=O)O)c1ccc2oc(-c3ccc(Cl)cc3)nc2c1 (centres undefined)
2. Cc1ccc(C)c(OCCCC(C)(C)C(=O)O)c1

> 30 µM
> 10 µM

###

- tested_system: Voltage-dependent L-type calcium channel subunit alpha-1C (Rattus norvegicus, UniProt P22002); also: assay procedure not described here
- Sequence (P22002 whole entry): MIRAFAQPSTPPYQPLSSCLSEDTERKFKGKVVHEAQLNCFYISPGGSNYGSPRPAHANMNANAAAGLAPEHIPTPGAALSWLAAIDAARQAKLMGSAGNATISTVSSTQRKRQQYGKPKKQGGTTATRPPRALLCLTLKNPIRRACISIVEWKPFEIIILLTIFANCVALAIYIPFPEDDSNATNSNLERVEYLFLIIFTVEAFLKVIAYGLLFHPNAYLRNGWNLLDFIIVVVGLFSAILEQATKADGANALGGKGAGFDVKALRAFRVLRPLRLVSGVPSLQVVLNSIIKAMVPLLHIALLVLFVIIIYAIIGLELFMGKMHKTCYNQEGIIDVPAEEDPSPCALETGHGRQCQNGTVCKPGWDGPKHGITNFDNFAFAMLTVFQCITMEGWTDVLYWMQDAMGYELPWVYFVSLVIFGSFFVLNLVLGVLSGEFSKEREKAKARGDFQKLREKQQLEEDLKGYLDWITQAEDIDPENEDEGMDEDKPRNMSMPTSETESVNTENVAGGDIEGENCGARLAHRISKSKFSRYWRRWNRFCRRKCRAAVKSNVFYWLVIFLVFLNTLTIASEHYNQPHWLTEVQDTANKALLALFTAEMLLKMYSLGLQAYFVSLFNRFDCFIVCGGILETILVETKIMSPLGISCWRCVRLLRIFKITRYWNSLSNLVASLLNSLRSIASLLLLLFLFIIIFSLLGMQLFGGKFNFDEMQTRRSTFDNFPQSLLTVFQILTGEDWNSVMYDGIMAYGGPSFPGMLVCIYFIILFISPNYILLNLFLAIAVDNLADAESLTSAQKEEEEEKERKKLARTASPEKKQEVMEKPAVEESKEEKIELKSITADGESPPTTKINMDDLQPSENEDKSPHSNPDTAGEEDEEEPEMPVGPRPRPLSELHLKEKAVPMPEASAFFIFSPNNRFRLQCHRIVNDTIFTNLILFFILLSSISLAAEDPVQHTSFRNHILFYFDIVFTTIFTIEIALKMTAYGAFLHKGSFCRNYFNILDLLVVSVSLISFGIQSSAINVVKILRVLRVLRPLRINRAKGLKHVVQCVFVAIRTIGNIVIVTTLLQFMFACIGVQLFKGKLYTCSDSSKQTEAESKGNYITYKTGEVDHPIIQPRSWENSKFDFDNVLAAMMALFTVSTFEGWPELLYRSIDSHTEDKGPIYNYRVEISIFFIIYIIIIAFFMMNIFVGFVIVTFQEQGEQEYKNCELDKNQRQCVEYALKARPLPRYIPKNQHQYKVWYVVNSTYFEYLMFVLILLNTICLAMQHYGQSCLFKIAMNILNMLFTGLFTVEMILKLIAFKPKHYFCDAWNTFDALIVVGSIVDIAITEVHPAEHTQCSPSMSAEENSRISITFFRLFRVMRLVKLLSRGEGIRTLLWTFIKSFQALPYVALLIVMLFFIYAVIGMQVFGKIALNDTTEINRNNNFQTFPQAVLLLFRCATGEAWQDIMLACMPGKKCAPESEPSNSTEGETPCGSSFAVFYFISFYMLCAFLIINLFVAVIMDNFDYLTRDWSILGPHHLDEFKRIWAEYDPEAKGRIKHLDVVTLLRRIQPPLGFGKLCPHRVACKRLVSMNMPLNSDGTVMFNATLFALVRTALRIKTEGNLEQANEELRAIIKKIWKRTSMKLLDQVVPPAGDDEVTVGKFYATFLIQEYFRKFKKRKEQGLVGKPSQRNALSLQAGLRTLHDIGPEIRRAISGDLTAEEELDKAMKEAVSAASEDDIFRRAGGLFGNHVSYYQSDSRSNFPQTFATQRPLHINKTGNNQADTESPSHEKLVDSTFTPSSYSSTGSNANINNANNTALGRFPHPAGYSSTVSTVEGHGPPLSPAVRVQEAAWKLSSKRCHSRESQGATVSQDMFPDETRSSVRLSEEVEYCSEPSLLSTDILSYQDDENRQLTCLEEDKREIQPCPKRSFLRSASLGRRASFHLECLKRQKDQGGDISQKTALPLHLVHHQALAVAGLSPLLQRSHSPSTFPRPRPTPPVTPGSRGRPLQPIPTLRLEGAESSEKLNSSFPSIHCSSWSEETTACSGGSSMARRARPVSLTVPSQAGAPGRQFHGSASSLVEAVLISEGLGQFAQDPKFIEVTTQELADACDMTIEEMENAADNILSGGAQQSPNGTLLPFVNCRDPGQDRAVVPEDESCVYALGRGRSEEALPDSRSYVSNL
- Format: functional
observation_type: AC50

| compound | observation_type | measured |
| --- | --- | --- |
| CC(=O)Nc1ccc(CC(=O)O)cc1 | AC50 | > 30 µM |
| COc1cc(C(=O)NC2CCCNC2)cc(OC)c1OC (stereo not given) [TROXIPIDE] | AC50 | > 30 µM |
| CC(C)(Oc1ccc(CCNC(=O)c2ccc(Cl)cc2)cc1)C(=O)O [BEZAFIBRATE] | AC50 | > 10 µM |
| Cc1cc(=O)n(-c2ccccc2)n1C [ANTIPYRINE] | AC50 | > 10 µM |

Record AC50 for all entries; do not skip any.
1. CN(C)Cc1nnc2n1-c1ccc(Cl)cc1C(c1ccccc1)=NC2
2. Cn1cc(C(=O)[C@@H]2CCc3nc[nH]c3C2)c2ccccc21
3. CCN1CC(CCN2CCOCC2)C(c2ccccc2)(c2ccccc2)C1=O (stereo not given)
4. CN[C@@H](C)[C@@H](O)c1ccccc1
5. CC(C)C[C@H](NC(=O)[C@@H](O)[C@H](N)Cc1ccccc1)C(=O)O
6. Oc1ccc(CCNCCCCCCNCCc2ccccc2)cc1O

1. > 10 µM
2. > 30 µM
3. > 30 µM
4. > 10 µM
5. > 30 µM
6. > 30 µM
